Tested on: Escherichia coli ATCC BAA-2523
Format: cell-based
Settings: ATCC BAA-2523
Numbered stars: 1 amine (or outer) side, 2 acyl side, 3 side chain; on linkers, the order of the positions; unused ones are H or OH. Bridge positions count the residues as written; N and C are the ends. Square brackets hold non-standard residues; d marks the D form. Peptide text beside a SMILES is read from it. * marks the point of attachment. X2 = O=C([C@H](CNCS(=O)(=O)O)N[*:1])[*:2]; Heptanoyl(6-Me) = CC(C)CCCCC(=O)*; Nonanoyl = CCCCCCCCC(=O)*; X1 = CC[C@H](C)CCCCC(=O)*; dDab = NCC[C@@H](N)C(=O)O; Heptanoyl = CCCCCCC(=O)*; Octanoyl = CCCCCCCC(=O)*; Orn = NCCC[C@H](N)C(=O)O; Dab = NCC[C@H](N)C(=O)O; Dap = NC[C@H](N)C(=O)O
Reported values of MIC for individual entries
MEASUREMENT NAME: MIC

>  <COMPOUND>
CC(C)CCCCC(=O)N[C@@H](CCN)C(=O)N[C@H](C(=O)N[C@H](CCN)C(=O)N[C@H]1CCNC(=O)[C@H]([C@@H](C)O)NC(=O)[C@H](CCN)NC(=O)[C@H](CCN)NC(=O)[C@H]([C@@H](C)O)NC(=O)[C@@H](Cc2ccccc2)NC(=O)[C@H](CCN)NC1=O)[C@@H](C)O [Compound 12] ({Heptanoyl(6-Me)}-[Dab]T[dDab][Dab][Dab][dF]T[Dab][Dab]T; lactam 4-C)

>  <RECORDED VALUE>
≤0.03 µg/mL

$$$$
>  <COMPOUND>
CC[C@H](C)CCCCC(=O)N[C@@H](CN)C(=O)N[C@H](C(=O)N[C@H](CCN)C(=O)N[C@H]1CCNC(=O)[C@H]([C@@H](C)O)NC(=O)[C@H](CCN)NC(=O)[C@H](CCN)NC(=O)[C@H](CC(C)C)NC(=O)[C@@H](CC(C)C)NC(=O)[C@H](CCN)NC1=O)[C@@H](C)O [Compound 96] (X1-[Dap]T[dDab][Dab][Dab][dL]L[Dab][Dab]T; lactam 4-C)

>  <RECORDED VALUE>
0.03 µg/mL

$$$$
>  <COMPOUND>
CC[C@H](C)CCCCC(=O)N[C@@H](CCN)C(=O)N[C@H](C(=O)N[C@H](CO)C(=O)N[C@H]1CCNC(=O)[C@H]([C@@H](C)O)NC(=O)[C@H](CCN)NC(=O)[C@H](CCCN)NC(=O)[C@H]([C@@H](C)O)NC(=O)[C@@H](Cc2ccccc2)NC(=O)[C@H](CCN)NC1=O)[C@@H](C)O [Compound 76] (X1-[Dab]T[dS][Dab][Dab][dF]T[Orn][Dab]T; lactam 4-C)

>  <RECORDED VALUE>
≤0.03 µg/mL

$$$$
>  <COMPOUND>
CCCCCCC(=O)N[C@@H](CCN)C(=O)N[C@H](C(=O)N[C@H](CO)C(=O)N[C@H]1CCNC(=O)[C@H]([C@@H](C)O)NC(=O)[C@H](CCN)NC(=O)[C@H](CN)NC(=O)[C@H]([C@@H](C)O)NC(=O)[C@@H](Cc2ccccc2)NC(=O)[C@H](CCN)NC1=O)[C@@H](C)O [Compound 74] (Heptanoyl-[Dab]T[dS][Dab][Dab][dF]T[Dap][Dab]T; lactam 4-C)

>  <RECORDED VALUE>
0.06 µg/mL

$$$$
>  <COMPOUND>
CCCCCCCCC(=O)N[C@@H](CCN)C(=O)N[C@H](C(=O)N[C@@H](CCCN)C(=O)N[C@H]1CCNC(=O)[C@H]([C@@H](C)O)NC(=O)[C@H](CCN)NC(=O)[C@H](CCN)NC(=O)[C@H]([C@@H](C)O)NC(=O)[C@@H](Cc2ccccc2)NC(=O)[C@H](CCN)NC1=O)[C@@H](C)O [Compound 30] (Nonanoyl-[Dab]T[Orn][Dab][Dab][dF]T[Dab][Dab]T; lactam 4-C)

>  <RECORDED VALUE>
0.03 µg/mL

$$$$
>  <COMPOUND>
CCCCCCCCC(=O)N[C@@H](CN)C(=O)N[C@H](C(=O)N[C@H](CCN)C(=O)N[C@H]1CCNC(=O)[C@H]([C@@H](C)O)NC(=O)[C@H](CCN)NC(=O)[C@H](CCN)NC(=O)[C@H](CC(C)C)NC(=O)[C@@H](Cc2ccccc2)NC(=O)[C@H](CCN)NC1=O)[C@@H](C)O [Compound 95] (Nonanoyl-[Dap]T[dDab][Dab][Dab][dF]L[Dab][Dab]T; lactam 4-C)

>  <RECORDED VALUE>
0.125 µg/mL

$$$$
>  <COMPOUND>
CCCCCCCC(=O)N[C@@H](CCN)C(=O)N[C@H](C(=O)N[C@@H](CCCN)C(=O)N[C@H]1CCNC(=O)[C@H]([C@@H](C)O)NC(=O)[C@H](CCN)NC(=O)[C@H](CCN)NC(=O)[C@H]([C@@H](C)O)NC(=O)[C@@H](Cc2ccccc2)NC(=O)[C@H](CCN)NC1=O)[C@@H](C)O [Compound 28] (Octanoyl-[Dab]T[Orn][Dab][Dab][dF]T[Dab][Dab]T; lactam 4-C)

>  <RECORDED VALUE>
≤0.03 µg/mL

$$$$
>  <COMPOUND>
CC[C@H](C)CCCCC(=O)N[C@@H](CCN)C(=O)N[C@H](C(=O)N[C@@H](CCCN)C(=O)N[C@H]1CCNC(=O)[C@H]([C@@H](C)O)NC(=O)[C@H](CCN)NC(=O)[C@H](CCN)NC(=O)[C@H]([C@@H](C)O)NC(=O)[C@@H](Cc2ccccc2)NC(=O)[C@H](CCN)NC1=O)[C@@H](C)O [Compound 26] (X1-[Dab]T[Orn][Dab][Dab][dF]T[Dab][Dab]T; lactam 4-C)

>  <RECORDED VALUE>
≤0.03 µg/mL

$$$$
>  <COMPOUND>
CC(C)CCCCC(=O)N[C@@H](CCN)C(=O)N[C@H](C(=O)N[C@@H](CNCS(=O)(=O)O)C(=O)N[C@H]1CCNC(=O)[C@H]([C@@H](C)O)NC(=O)[C@H](CCN)NC(=O)[C@H](CCN)NC(=O)[C@H]([C@@H](C)O)NC(=O)[C@@H](Cc2ccccc2)NC(=O)[C@H](CCN)NC1=O)[C@@H](C)O [Compound 112] ({Heptanoyl(6-Me)}-[Dab]T[X2][Dab][Dab][dF]T[Dab][Dab]T; lactam 4-C)

>  <RECORDED VALUE>
0.03 µg/mL

$$$$
>  <COMPOUND>
CCCCCCCC(=O)N[C@@H](CCN)C(=O)N[C@H](C(=O)N[C@@H](CCCN)C(=O)N[C@H]1CCNC(=O)[C@H]([C@@H](C)O)NC(=O)[C@H](CCN)NC(=O)[C@H](CCN)NC(=O)[C@H](CC(C)C)NC(=O)[C@@H](Cc2ccccc2)NC(=O)[C@H](CCN)NC1=O)[C@@H](C)O [Compound 48] (Octanoyl-[Dab]T[Orn][Dab][Dab][dF]L[Dab][Dab]T; lactam 4-C)

>  <RECORDED VALUE>
0.03 µg/mL

$$$$
